Values from patent US12011444B2

target-desc: PTRGER4 (EP4) (Homo sapiens (Human))
Sequence (P35408 whole entry, looked up): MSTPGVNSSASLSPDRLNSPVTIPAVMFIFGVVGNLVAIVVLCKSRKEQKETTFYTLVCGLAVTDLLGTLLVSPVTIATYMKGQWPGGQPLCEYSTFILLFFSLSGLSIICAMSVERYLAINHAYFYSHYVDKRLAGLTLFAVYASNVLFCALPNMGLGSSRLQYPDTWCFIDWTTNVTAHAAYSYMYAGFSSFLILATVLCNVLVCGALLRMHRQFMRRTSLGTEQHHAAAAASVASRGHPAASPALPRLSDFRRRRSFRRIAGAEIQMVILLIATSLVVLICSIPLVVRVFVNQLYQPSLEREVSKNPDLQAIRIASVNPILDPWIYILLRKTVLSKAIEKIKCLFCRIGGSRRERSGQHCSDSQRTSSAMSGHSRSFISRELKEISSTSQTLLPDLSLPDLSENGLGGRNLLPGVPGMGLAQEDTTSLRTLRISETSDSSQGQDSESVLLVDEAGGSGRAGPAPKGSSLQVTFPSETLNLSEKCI
assay-details: hEP4 b-arrestin assay (PathHunter HEK 293 PTGER4 b-arrestin cells)
Format: cell-based
assay-context: hEP4 b-arrestin assay (values without asterisk)
Overview of reported pIC50 across a group of compounds:
The scale used: pIC50 is minus the common logarithm of the concentration in molar units.

As a guide, the following entries are already answered.
compound: CCOc1cc(-c2cc(NC(C)Cn3c(C)cc4c(OC)ccc(F)c43)ncn2)sc1C(=O)O (racemic) [Example 797]
pIC50: 7.19
//
compound: CCOc1cc(-c2cc(NCCn3c(C#N)cc4c(OC)ccc(F)c43)ncn2)sc1C(=O)NC [Example 1023]
pIC50: 9.00
//
compound: CCOc1cc(-c2cc(NCCn3c(C)cc4c(OC)ccc(F)c43)ncn2)sc1CC(=O)O [Example 847]
pIC50: 6.51

Sure, the documented pIC50 for CCCCOc1cc(-c2cc(NCCn3c(C#N)cc4c(OC)ccc(F)c43)ncn2)cc(F)c1C(=O)O [Example 905] is 8.30
